- Species on record: Rattus norvegicus
- Experimental details: DrugMatrix - Regimen: Daily Repeat
- Assay type: toxicity, organism-based, Sprague-Dawley
- Set-up: regimen Daily Repeat, gender Male, age 6-8 weeks
- Particulars: in vivo, po, 0 mg/kg, 72 h, tissue Plasma, route oral GAVAGE, dose level Control, time 3 day, vehicle .5 % CMC
Recorded endpoint: CHLORIDE (MEQ/L)
Your answer is read as MEQ/L, so omit the unit and give the number.

Example cases with answers are listed next.
CNC(=C[N+](=O)[O-])NCCSCc1ccc(CN(C)C)o1; 99.17
CO[C@H]1/C=C/O[C@@]2(C)Oc3c(C)c(O)c4c(c3C2=O)C2=NC3(CCN(CC(C)C)CC3)NC2=C(NC(=O)/C(C)=C\C=C\[C@H](C)[C@H](O)[C@@H](C)[C@@H](O)[C@@H](C)[C@H](OC(C)=O)[C@@H]1C)C4=O; 99.17

Look up and state reported CHLORIDE for O=[N+]([O-])c1ccccc1
103.5

Look up and state reported CHLORIDE for O=C1CCC(N2C(=O)c3ccccc3C2=O)C(=O)N1 (centres undefined) [THALIDOMIDE]
104.33

====

- Species on record: Rattus norvegicus
- Experimental details: DrugMatrix - Regimen: Daily Repeat
- Assay type: toxicity, organism-based, Sprague-Dawley
- Parameters: regimen Daily Repeat, gender Male, age 6-8 weeks
- Particulars: in vivo, po, 0 mg/kg, 120 h, tissue Plasma, route oral GAVAGE, dose level Control, time 5 day, vehicle .5 % CMC
Decision: CREATINE PHOSPHOKINASE >= 200 u/L yields T, all other cases yield F.

Check out these entries, answers already filled in.
CC(=O)CC(c1ccccc1)c1c(O)c2ccccc2oc1=O (stereo unspecified); T
CC[C@@H](CO)NCCN[C@@H](CC)CO; F
Clc1ccc2c(c1)C(N1CCNCC1)=Nc1ccccc1O2; T
CO[C@H]1/C=C/O[C@@]2(C)Oc3c(C)c(O)c4c(c3C2=O)C2=NC3(CCN(CC(C)C)CC3)NC2=C(NC(=O)/C(C)=C\C=C\[C@H](C)[C@H](O)[C@@H](C)[C@@H](O)[C@@H](C)[C@H](OC(C)=O)[C@@H]1C)C4=O; T
OC(CCN1CCCCC1)(c1ccccc1)C1CCCCC1 (stereo unspecified); T

Note: attention shifts to another entry.
// inclusive: CREATINE PHOSPHOKINASE at least 200 u/L? input: O=C1CCC(N2C(=O)c3ccccc3C2=O)C(=O)N1 (stereo unspecified) [THALIDOMIDE]
F

====

Entries and their TOTAL PROTEIN
- Species on record: Rattus norvegicus
- Experimental details: DrugMatrix - Regimen: Daily Repeat
- Type: toxicity, organism-based, Sprague-Dawley
- Set-up: regimen Daily Repeat, gender Male, age 6-8 weeks
- Particulars: in vivo, po, 0 mg/kg, 120 h, tissue Plasma, route oral GAVAGE, dose level Control, time 5 day, vehicle 100 % WATER
Please report the result as a number followed by the unit.

Cc1ncc([N+](=O)[O-])n1CCO; 5.98 G/DL
CC(C)C[C@H](NC(=O)[C@@H](O)[C@H](N)Cc1ccccc1)C(=O)O; 6.22 G/DL
COc1cc2ncnc(Nc3ccc(F)c(Cl)c3)c2cc1OCCCN1CCOCC1; 6.3 G/DL
COC(=O)C1=C(C)NC(C)=C(C(=O)OCC(C)C)C1c1ccccc1[N+](=O)[O-] (stereo not given); 6.05 G/DL
CC(C)(C)c1ccc(C(=O)CCCN2CCC(OC(c3ccccc3)c3ccccc3)CC2)cc1; 6.1 G/DL

Look up and state reported TOTAL PROTEIN for ClC(Cl)Cl [CHLOROFORM]
5.98 G/DL

Look up and state reported TOTAL PROTEIN for C[N+](C)(C)CCO.[Cl-] [CHOLINE CHLORIDE]
6 G/DL

Look up and state reported TOTAL PROTEIN for CC(C)NCC(O)COc1cccc2ccccc12 (stereo not given)
6.15 G/DL

Look up and state reported TOTAL PROTEIN for C[C@@H]1C[C@@H]([C@H](O)CC2CC(=O)NC(=O)C2)C(=O)[C@@H](C)C1 [CYCLOHEXIMIDE]
6.43 G/DL

Look up and state reported TOTAL PROTEIN for Nc1ccn([C@@H]2CS[C@H](CO)O2)c(=O)n1
6.12 G/DL
